Tested on: T47D
Test: NCI tumour cell line growth inhibition, 48 h
Active and inactive are the calls of the source. No stated cut-off is given here; in the data, active = GI50 up to about 1.1 µM and inactive = higher.
Exercise: state measured GI50 for each of the compounds provided.

These solved cases illustrate the format of a correct answer.
[[record]]
compound = "COc1nc2ccc(COc3ccc(C(=O)O)cc3)cc2nc1OC"
quantity_kind = "GI50"
result = "> 100 µM (inactive)"

[[record]]
compound = "COc1ccc2nccc(SCC(=O)O)c2c1"
quantity_kind = "GI50"
result = "> 100 µM (inactive)"

[[record]]
compound = "CC(C)(SCc1ccccc1)C(N)C(=O)O (centres undefined)"
quantity_kind = "GI50"
result = "> 100 µM (inactive)"


Let us move to another entry and its GI50.
Query: If you can, please state the reported GI50 value of CCOC(=O)c1c(N2CCCC2)nsc1Nc1ccc(F)cc1 .
Result: 9.57 µM (inactive)

====

Exercise: state measured GI50 for each of the compounds provided.
Tested on: M14
Test: NCI tumour cell line growth inhibition, 48 h
Activity calls are given as the source filed them. Rule as the data show it: active = GI50 up to about 1.1 µM and inactive = higher.

[[record]]
compound = "CC1=C(c2cc(C(=O)Nc3cccc(C(F)(F)F)c3)ncn2)Sc2ccccc2N1"
result = "> 100 µM (inactive)"


Dear colleague, could you send me GI50 for each of the items below? Thanks.
1. Cn1c(=O)c2c(ncn2CCNC(CO)C(O)c2ccc([N+](=O)[O-])cc2)n(C)c1=O (stereo not given)
2. Cc1cc(OCC(O)CO)ccc1-c1ccccc1 (stereo not given)
3. C=CC1C(OC2OC(CO)C(O)C(O)C2O)OC=C(C(=O)OC)C1CC1CC(=O)CC(CCc2ccc(O)cc2)O1 (stereo not given)
4. c1ccc(C2=NOC3COc4ccccc4OCC23)cc1 (stereo not given)

Result:
["> 100 µM (inactive)", "> 100 µM (inactive)", "> 100 µM (inactive)", "> 100 µM (inactive)"]

Dear colleague, could you send me GI50 for each of the items below? Thanks.
1. O=C1CC(c2ccc(Cl)cc2)C2(C(=O)NC(=S)NC2=O)C(c2ccc(Cl)cc2)C1 (stereo not given)
2. COC(=O)C(Cc1nc2ccccc2nc1O)C(=O)C(=O)Nc1ccc([N+](=O)[O-])cc1[N+](=O)[O-] (stereo not given)
3. CCC1(O)C(=O)OCc2c1cc1n(c2=O)Cc2cc3cc(OC)c(OC)cc3nc2-1 (stereo not given)
4. COC(=O)NC(=O)NC(Cc1ccccc1)NC(=O)OCc1ccccc1 (stereo not given)

Result:
["22.2 µM (inactive)", "17.8 µM (inactive)", "26.4 µM (inactive)", "> 100 µM (inactive)"]

Query: Fill in the recorded GI50 for this compound, with M14 as test system: Cc1cc(C2CCCCC2)n(O)c(=O)c1 [CICLOPIROX OLAMINE]
Result: 14.2 µM (inactive)

====

Tested on: OVCAR-8
Assay: NCI tumour cell line growth inhibition, 48 h
Activity calls are given as the source filed them. Cut-off read from the data, not from the text of the source: active = GI50 up to about 1.1 µM and inactive = higher.
Exercise: state measured GI50 for each of the molecules provided.

[[record]]
molecule = "O=Cc1ccc(-c2cc(C=O)c(-c3cccs3)[nH]2)s1"
quantity_kind = "GI50"
result = "21.4 µM (inactive)"

[[record]]
molecule = "Cc1ccc(S(=O)(=O)N/N=C\\c2c3ccccc3[n+]([O-])c3ccccc23)cc1"
quantity_kind = "GI50"
result = "4.03 µM (inactive)"

[[record]]
molecule = "CC(C)CC(N)C(=O)Nc1ccc2ccccc2c1 (configuration not stated)"
quantity_kind = "GI50"
result = "> 100 µM (inactive)"


Dear colleague, could you send me GI50 for each of the items below? Thanks.
1. COc1ccc(/C=N/n2c(Cc3ccccc3)n[nH]c2=O)c(OC)c1
2. O=C(O)[C@@H]1CCCC[C@@H]1C(=O)N(C1CCCCC1)C1CCCCC1
3. Cn1ccnc1Sc1ccc(/C=N/NC(=O)c2ccccc2O)cc1[N+](=O)[O-]
4. Nc1nccc(-c2c[nH]c3cc(Br)ccc23)n1
5. Cc1oc2c(C)c3oc(=O)cc(C)c3cc2c1CN1C(=O)C2OCCOCCOCCOCCOCCO[C@H]2C1=O (some centres not stated)
6. NC(CCc1nc(-c2ccc(Cl)cc2)cs1)C(=O)O (configuration not stated)
7. CC(=O)CCn1c(=S)sc2ccccc21

Result:
24.7 µM (inactive)
> 100 µM (inactive)
> 100 µM (inactive)
35.7 µM (inactive)
> 100 µM (inactive)
> 100 µM (inactive)
> 100 µM (inactive)
